# targetOrSystem: hMPV A2 F (human metapneumovirus)
# protocolText: ELISA on coated recombinant protein, OD 405 nm
Could you please report measured EC50 for the items listed next?
Write the number in µg/mL without appending the unit.

Task: Bench note: what EC50 did MPV86 (antibody, V domains shown) VH: QVQLVQSGAEVKKPGSSVKVSCKASGDTFNDVALSWVRQAPGQGLEWLGGIIPFFGTANYAQRFQDRVTITADASTSTAYLELGGLRSEDTAVYYCARGWSCRNITCFMMGYYFYIMDVWGQGTLVTVSS VL: LSLSPGERATLSCRASQSVGNFLAWYQQKPGQTPRLLIQDASNRATGIPARFSGTGSGTDFTLTISSLEPEDFAVYYCQQRSNWPPTFGPGTKVDIK show?
Output: 0.083

Task: Same question for MPV456 (antibody, V domains shown) VH: QVQLQESGPGVVKPSGTLSLTCGVSGGSISSSYWWSWVRQPPGKGLEWIGEIYHSGSTNYNPSLKRRVTISVDKSKNQFSLKVTSVTAADTAVYYCARGPIQYYDILTEERVGYCDYWGQGTLVTVSS VL: TLSASVGDRVTITCRASQSISSWLAWFQQKPGKAPKLLIYKTSSLESGVPSRFSGSGSGTEFTLTISSLQPDDFATYYCQEYNSYSRTFGQGTKVEIK please.
Output: 0.42

Task: Now try MPV478 (antibody, V domains shown) VH: EVQLVQSGAEVKKPGASVKVSCNASGYTFTGYYIHWVRQAPGQGLEWMGWINPRSGGTNYAQKFQGRVTLTRDTSITTAYMDVTRLRPDDTAVYYCATTREGIVLMPRGRGDDALDTWGQGTTVIVSS VL: DIVMTQSPVSLTVSLGERATINCKSSQSVLSTSNNENYLAWYQQKPGQPPNLLIYWASTRESGVPDRFSGSGSGTDFTLTISSLQAEDVAVYYCQQYFATPITFGPGTKVDVK .
Output: 0.021
